inhibition at 25 µM listing for selected compounds.
Target: UniProt P59540
Sequence (P59540 whole entry): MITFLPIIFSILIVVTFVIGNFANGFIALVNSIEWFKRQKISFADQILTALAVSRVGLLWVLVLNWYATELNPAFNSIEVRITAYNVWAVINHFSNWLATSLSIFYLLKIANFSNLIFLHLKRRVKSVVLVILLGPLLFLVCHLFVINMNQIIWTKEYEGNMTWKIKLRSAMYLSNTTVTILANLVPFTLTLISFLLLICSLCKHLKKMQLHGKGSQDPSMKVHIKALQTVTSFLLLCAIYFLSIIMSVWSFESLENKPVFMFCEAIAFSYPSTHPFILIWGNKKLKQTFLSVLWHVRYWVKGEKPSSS
Experiment: hT2R panel inhibition, transient HEK293 G16g44, agonist Strychnine 1 μM
Type: cell-based
Conditions: HEK293, read-out: screening result against bitter receptor 75, compound at 25 μM; receptor activated to EC80 with the corresponding agonist
ENDPOINT_LABEL: inhibition at 25 µM

>  <COMPOUND>
COc1ccccc1CN(Cc1ccc(C(=O)O)cc1)S(=O)(=O)c1ccccc1 [Example 5-100]

>  <ENDPOINT_LABEL>
inhibition at 25 µM

>  <MEASURED_VALUE>
20 to 40%

$$$$
>  <COMPOUND>
COc1ccc(CN(CC2CCCCC2)S(=O)(=O)c2ccc(C(=O)O)cc2)cc1 [Example 5-23]

>  <ENDPOINT_LABEL>
inhibition at 25 µM

>  <MEASURED_VALUE>
40 to 60%

$$$$
>  <COMPOUND>
O=C(O)c1ccc(S(=O)(=O)N(Cc2ccccc2)Cc2ccccc2F)cc1 [Example 5-72]

>  <ENDPOINT_LABEL>
inhibition at 25 µM

>  <MEASURED_VALUE>
40 to 60%

$$$$
>  <COMPOUND>
COc1ccc(CN(Cc2ccc(OC)cc2)S(=O)(=O)c2ccc(C(=O)O)cc2)cc1 [Example 5-30]

>  <ENDPOINT_LABEL>
inhibition at 25 µM

>  <MEASURED_VALUE>
20 to 40%

$$$$

* * *

Biological target: UniProtKB P59538
Sequence (P59538 whole entry): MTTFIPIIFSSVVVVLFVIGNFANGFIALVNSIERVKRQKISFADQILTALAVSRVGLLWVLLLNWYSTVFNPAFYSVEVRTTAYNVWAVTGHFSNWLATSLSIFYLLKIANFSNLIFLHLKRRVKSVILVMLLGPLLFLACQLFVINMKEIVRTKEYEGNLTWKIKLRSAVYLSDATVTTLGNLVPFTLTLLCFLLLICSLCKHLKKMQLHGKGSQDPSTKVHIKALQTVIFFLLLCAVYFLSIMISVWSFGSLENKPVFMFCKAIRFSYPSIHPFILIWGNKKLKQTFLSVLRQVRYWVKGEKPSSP
Experiment: hT2R panel inhibition, transient HEK293 G16g44, agonist Aristolochic Acid 1 μM
Assay type: cell-based
Conditions: HEK293, compound at 25 μM; receptor activated to EC80 with the corresponding agonist; read-out: screening result against bitter receptor 64
inhibition at 25 µM listing for selected compounds.
ENDPOINT_LABEL: inhibition at 25 µM

>  <COMPOUND>
COc1ccc(CN(Cc2ccc(C(=O)O)cc2)S(=O)(=O)c2ccccc2)cc1

>  <ASSAYED_SYSTEM>
UniProtKB P59538

>  <ENDPOINT_LABEL>
inhibition at 25 µM

>  <MEASURED_VALUE>
60 to 80%

$$$$
>  <COMPOUND>
COc1ccccc1CN(Cc1ccco1)S(=O)(=O)c1ccc(C(=O)O)cc1

>  <ASSAYED_SYSTEM>
UniProtKB P59538

>  <ENDPOINT_LABEL>
inhibition at 25 µM

>  <MEASURED_VALUE>
> 80%

$$$$
>  <COMPOUND>
COc1ccc(CN2C(=O)N(c3ccc(C(=O)O)cc3)C(=O)C2Cc2ccccc2)cc1 (centres unmarked)

>  <ASSAYED_SYSTEM>
UniProtKB P59538

>  <ENDPOINT_LABEL>
inhibition at 25 µM

>  <MEASURED_VALUE>
60 to 80%

$$$$
>  <COMPOUND>
COc1ccc(CN(Cc2cc(OC)cc(OC)c2)S(=O)(=O)c2ccc(C(=O)O)cc2)cc1

>  <ASSAYED_SYSTEM>
UniProtKB P59538

>  <ENDPOINT_LABEL>
inhibition at 25 µM

>  <MEASURED_VALUE>
60 to 80%

$$$$
>  <COMPOUND>
COc1ccc(CN(CCc2ccccc2)S(=O)(=O)c2ccc(C(=O)O)cc2)cc1

>  <ASSAYED_SYSTEM>
UniProtKB P59538

>  <ENDPOINT_LABEL>
inhibition at 25 µM

>  <MEASURED_VALUE>
> 80%

$$$$
>  <COMPOUND>
COc1ccccc1CN(Cc1ccc(C(=O)O)cc1)S(=O)(=O)c1ccccc1

>  <ASSAYED_SYSTEM>
UniProtKB P59538

>  <ENDPOINT_LABEL>
inhibition at 25 µM

>  <MEASURED_VALUE>
> 80%

$$$$
>  <COMPOUND>
CCOc1ccc(CN(Cc2ccco2)S(=O)(=O)c2ccc(C(=O)O)cc2)cc1

>  <ASSAYED_SYSTEM>
UniProtKB P59538

>  <ENDPOINT_LABEL>
inhibition at 25 µM

>  <MEASURED_VALUE>
> 80%

$$$$
>  <COMPOUND>
COc1ccc(CN(Cc2ccccc2)S(=O)(=O)c2ccc(C(=O)O)cc2)cc1C

>  <ASSAYED_SYSTEM>
UniProtKB P59538

>  <ENDPOINT_LABEL>
inhibition at 25 µM

>  <MEASURED_VALUE>
60 to 80%

$$$$
